System: HEL92.1.7 cells
Assay: Cell viability assay (AlamarBlue, 72 h)
Type: cell-based, human
Conditions: Homo sapiens, HEL 92.1.7, 72 h, Alamar blue, read-out: IC50, loss of cellular viability
Experimental Endpoint: IC50 (nM)
Quick reminder: number only, in nM, skip the unit.

Determine its reported IC50: CC(C)c1cc(-c2nnc(O)n2-c2ccc3c(ccn3C)c2)c(O)cc1O [ganetespib] 20
